- Species on record: Homo sapiens
- ASSAY_PROTOCOL: Percent permeated in 3 hours in Caco-2 model
- Assay type: ADME, organism-based
- ASSAY_CONTEXT: caco-2, 3 h
PROPERTY_NAME: Permeated (%)

COMPOUND: COc1ccc(Cn2ccc(C)c(NC(=O)C(Cc3ccc(CC(=O)O)cc3)NC(=O)Cc3cccc4ccccc34)c2=O)cc1 (stereo not drawn)
Permeated [%]: 0.3

[I] COc1ccc(CNC(=O)[C@H](CCC(=O)O)NC(=O)[C@H](Cc2ccc(CC(=O)O)cc2)NC(=O)Cc2cccc3ccccc23)cc1
[II] COc1ccc(Cn2ccc(C)c(NC(=O)[C@@H](Cc3ccc(C(C)(C)C(=O)O)cc3)NC(=O)C(C)(C)c3ccc4ccccc4c3)c2=O)cc1
[III] COc1ccc(Cn2ccc(C)c(NC(=O)C(Cc3ccc(C(C)(C)C(=O)O)cc3)NC(=O)Cc3ccc4ccccc4c3)c2=O)cc1 (racemic)
[IV] COc1ccc(Cn2cccc(NC(=O)C(Cc3ccc(CC(=O)O)cc3)NC(=O)Cc3cccc4ccccc34)c2=O)cc1 (stereo not drawn)
Exercise: Order by Permeated, ascending. Return the labels ranked in the requested order, please.
Key: I, III, IV, II
(I: 0.3%, III: 0.6%, IV: 1.3%, II: 16%)

[P] COc1ccc(Cn2ccc(C)c(NC(=O)C(Cc3ccc(C(C)(C)C(=O)O)cc3)NC(=O)Cc3cccc4ccccc34)c2=O)cc1 (racemic)
[Q] COc1ccc(Cn2ccc(C)c(NC(=O)[C@H](Cc3ccc(C(C)(C)C(=O)O)cc3)NC(=O)C(C)(C)c3ccc4ccccc4c3)c2=O)cc1
Exercise: # query: argmin of Permeated over P and Q Mark your selection by writing its label.
Key: P
(P: 0.4%, Q: 21%)

----------
- ASSAY_PROTOCOL: Inhibition of proliferation of CD4+T cells
- Type: functional, cell-based
- ASSAY_CONTEXT: Homo sapiens, CD4+ T cell
PROPERTY_NAME: pEC50
Lab note: report pEC50 as minus log10 of the concentration in molar units, number only.

SMILES_INPUT: COc1ccc(Cn2ccc(C)c(NC(=O)[C@H](Cc3ccc(C(C)(C)C(=O)O)cc3)NC(=O)C(C)(C)c3ccc4ccccc4c3)c2=O)cc1
PROPERTY_NAME: pEC50
ENDPOINT_RESULT: 5.06

Exercise: Read off the recorded pEC50 for COc1ccc(Cn2ccc(C)c(NC(=O)[C@@H](Cc3ccc(C(C)(C)C(=O)O)cc3)NC(=O)C(C)(C)c3ccc4ccccc4c3)c2=O)cc1
Key: 4.78

----------
- EXPERIMENTAL_SYSTEM: Tyrosine-protein kinase Lck (Homo sapiens, UniProt P06239)
- Sequence (P06239 whole entry, the tested form may be a part): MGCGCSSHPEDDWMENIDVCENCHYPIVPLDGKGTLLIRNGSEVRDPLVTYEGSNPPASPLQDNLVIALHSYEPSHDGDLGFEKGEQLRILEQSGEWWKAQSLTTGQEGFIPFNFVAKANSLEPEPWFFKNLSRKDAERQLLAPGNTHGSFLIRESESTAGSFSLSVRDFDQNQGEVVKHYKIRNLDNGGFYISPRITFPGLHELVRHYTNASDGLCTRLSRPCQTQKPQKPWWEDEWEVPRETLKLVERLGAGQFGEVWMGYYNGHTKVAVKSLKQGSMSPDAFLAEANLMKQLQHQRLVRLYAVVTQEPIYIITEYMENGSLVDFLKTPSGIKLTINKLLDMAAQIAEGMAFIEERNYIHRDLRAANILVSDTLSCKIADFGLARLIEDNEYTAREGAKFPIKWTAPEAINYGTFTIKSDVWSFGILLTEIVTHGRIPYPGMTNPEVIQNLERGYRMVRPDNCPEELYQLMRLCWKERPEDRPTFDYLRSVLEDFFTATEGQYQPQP
- ASSAY_PROTOCOL: Binding affinity for p56lck SH2 domain site
PROPERTY_NAME: Kd (nM)

[P] COc1ccc(Cn2ccc(C)c(NC(=O)C(Cc3ccc(CC(=O)O)cc3)NC(C)=O)c2=O)cc1 (stereo not given)
[Q] COc1ccc(Cn2cccc(NC(=O)C(Cc3ccc(CC(=O)O)cc3)NC(=O)Cc3cccc4ccccc34)c2=O)cc1 (stereo not given)
[R] COc1ccc(Cn2ccc(C)c(NC(=O)C(Cc3ccc(C(C)(C)C(=O)O)cc3)NC(=O)Cc3cccc4ccccc34)c2=O)cc1 (racemic)
Exercise: sort_by: Kd; order: ascending; scope: items listed above Return the labels ranked in the requested order, please.
Key: R, P, Q

[I] COc1ccc(Cn2ccc(C)c(NC(=O)C(Cc3ccc(CC(=O)O)cc3)NC(=O)Cc3cccc4ccccc34)c2=O)cc1 (stereo not given)
[II] COc1ccc(Cn2ccc(C)c(NC(=O)C(Cc3ccc(C(C)(C)C(=O)O)cc3)NC(=O)Cc3ccc4ccccc4c3)c2=O)cc1 (racemic)
Exercise: # query: argmin of Kd over I and II Mark your selection by writing its label.
Key: II
